System: SGC-7901 gastric cancer cells
Experiment: Growth suppression, apoptosis and IC50 in gastric cancer cells SGC-7901
Format: cell-based
Settings: Homo sapiens, read-out: IC50 (IC50 drift, DOX only or AMP-001/DOX combination); SGC-7901 cells
OBSERVED PROPERTY: IC50 (nM)
Answer format: numeric, nM implied, no suffix.

[in] Return reported IC50. Input compound: COc1cccc2c1C(=O)c1c(O)c3c(c(O)c1C2=O)C[C@@](O)(C(=O)CO)C[C@@H]3O[C@H]1C[C@H](N)[C@H](O)[C@H](C)O1 [doxorubicin]
[out] 436
